- Tested on: Rattus norvegicus
- Measurement notes: Behavioral stimulant activity in rat by sc administration; Slight to moderate CNS stimulation
- Type: functional
Value kind: Dose (mg/kg)

| Compound | Reported measurement |
| --- | --- |
| CC(N)Cc1ccccc1 (stereo not given) | 6.25 |
| CN(CC1CC1)[C@@H]1C(c2ccccc2)=CC2CCC1C2 (stereo not given in full) | 50 |
| CCCN[C@@H]1C(c2ccccc2)=CC2CCC1C2 (stereo not given in full) | 25 |
| CCN(CC)[C@@H]1C(c2ccccc2)=CC2CCC1C2 (stereo not given in full) | 25 |
| CCN[C@@H]1C(c2ccccc2)=CC2CCC1C2 (stereo not given in full) | 25 |

====

- Species: Rattus norvegicus
- Measurement notes: Antinociceptive activity by measuring in flamed paw pressure threshold in rat
- Assay type: functional
Kindly apply the following: Met if ED50 is less than 8 mg/kg, Not met in every other case.

| Compound | Assigned label |
| --- | --- |
| COc1ccc2c3c1O[C@H]1[C@@H](O)C=C[C@H]4[C@@H](C2)N(C)CC[C@@]341 [CODEINE] | Met |
| CC(C)N[C@@H]1C(c2ccccc2)=CC2CCC1C2 (stereo not given in full) | Not met |
| C=CCN(C)[C@@H]1C(c2ccccc2)=CC2CCC1C2 (stereo not given in full) | Not met |
| CCN(C)[C@@H]1C(c2cccc(O)c2)=CC2CCC1C2 (stereo not given in full) | Not met |
| CN(C)CCN[C@@H]1C(c2ccccc2)=CC2CCC1C2 (stereo not given in full) | Not met |
| C1=C(c2ccccc2)[C@@H](NCCc2ccccc2)C2CCC1C2 (stereo not given in full) | Not met |
| C1=C(c2ccccc2)[C@@H](N2CCCC2)C2CCC1C2 (stereo not given in full) | Not met |
| CCN(C)[C@@H]1C(c2ccccc2)=CC2CCC1C2 (stereo not given in full) | Met |
| CC(C)N(C)[C@@H]1C(c2ccccc2)=CC2CCC1C2 (stereo not given in full) | Not met |
| N[C@@H]1C(c2ccccc2)=CC2CCC1C2 (stereo not given in full) | Not met |
| C1=C(c2ccccc2)[C@@H](NCC2CCCO2)C2CCC1C2 (stereo not given in full) | Not met |
| CCCN(C)[C@@H]1C(c2ccccc2)=CC2CCC1C2 (stereo not given in full) | Not met |
| CN(C)CCN(C)[C@@H]1C(c2ccccc2)=CC2CCC1C2 (stereo not given in full) | Not met |
| C1=C(c2ccccc2)[C@@H](NCC2CC2)C2CCC1C2 (stereo not given in full) | Not met |
| CCN(C)[C@@H]1C(c2cccc(OC)c2)=CC2CCC1C2 (stereo not given in full) | Not met |
| CN[C@@H]1C(c2ccccc2)=CC2CCC1C2 (stereo not given in full) | Not met |
| CC(N)Cc1ccccc1 (stereo not given) [AMPHETAMINE] | Met |
| CCN(CC)[C@@H]1C(c2ccccc2)=CC2CCC1C2 (stereo not given in full) | Not met |
| CN(CC1CC1)[C@@H]1C(c2ccccc2)=CC2CCC1C2 (stereo not given in full) | Not met |
| CN(C)[C@@H]1C(c2ccccc2)=CC2CCC1C2 (stereo not given in full) | Met |
| CCCN[C@@H]1C(c2ccccc2)=CC2CCC1C2 (stereo not given in full) | Not met |
| CCN[C@@H]1C(c2ccccc2)=CC2CCC1C2 (stereo not given in full) | Met |
| C=CCN[C@@H]1C(c2ccccc2)=CC2CCC1C2 (stereo not given in full) | Not met |
| COCCN(C)[C@@H]1C(c2ccccc2)=CC2CCC1C2 (stereo not given in full) | Not met |
